The reader will find reported Diameter (nm) values listed item by item below.
- assay explanation: Diameter and PDI from DLS measurements of mRNA nanoparticles with lipid amines
- Assay type: physicochemical
- reported conditions: Luciferase mRNA nanoparticle modified with lipid amine
Where a name gives a salt, the structure may show the parent alone.
The reply should contain only the number, in nm.

compound	uom	Diameter (nm)
CC(C)CCC[C@@H](C)[C@H]1CC[C@H]2[C@@H]3CC=C4C[C@@H](OC(=O)CCC(=O)N(CCCCNCCC(C)N)CCC(C)N)CC[C@]4(C)[C@H]3CC[C@]12C (stereo partly drawn) [SA160, trihydrochloride]	nm	75
CC[C@H](CC[C@@H](C)[C@H]1CC[C@H]2[C@@H]3CC=C4C[C@@H](OC(=O)N(CCCN)CCCCN)CC[C@]4(C)[C@H]3CC[C@]12C)C(C)C [SA120, dihydrochloride]	nm	76
CCC(N)(CC)CCNCCCCN(CCC(N)(CC)CC)C(=O)O[C@H]1CC[C@@]2(C)C(=CC[C@H]3[C@@H]4CC[C@H]([C@H](C)CCCC(C)C)[C@@]4(C)CC[C@@H]32)C1.Cl.Cl.Cl	nm	73

Then this compound:
If you can, please state the reported Diameter (nm) value of CC(C)CCC[C@@H](C)[C@H]1CC[C@H]2[C@@H]3CC=C4C[C@@H](OC(=O)N(CCCCNC(C)CCN)C(C)CCN)CC[C@]4(C)[C@H]3CC[C@]12C (stereo partly drawn) [SA74, trihydrochloride] .
75

---

- assay explanation: Diameter and PDI from DLS measurements of mRNA nanoparticles with lipid amines
- Assay type: physicochemical
- reported conditions: Luciferase mRNA nanoparticle modified with lipid amine
Structures can show the parent of a compound that is named as a salt.
parameter: Diameter (nm)
Answer with a number only, understood to be in nm.

Consider the following illustrative entries.
molecule	quantitative result
CC[C@H](CC[C@@H](C)[C@H]1CC[C@H]2[C@@H]3CC=C4C[C@@H](OC(=O)CCCC(=O)N(CCCN)CCCCCCCCN)CC[C@]4(C)[C@H]3CC[C@]12C)C(C)C.Cl.Cl [SA135]	71
CC[C@H](CC[C@@H](C)[C@H]1CC[C@H]2[C@@H]3CC=C4C[C@@H](OC(=O)[C@H](C)N(CCCN)CCCCNCCCN)CC[C@]4(C)[C@H]3CC[C@]12C)C(C)C [SA118]	74
CC[C@H](CC[C@@H](C)[C@H]1CC[C@H]2[C@@H]3CC=C4C[C@@H](OC(=O)N(CCCC(C)(C)N)CCC(C)(C)N)CC[C@]4(C)[C@H]3CC[C@]12C)C(C)C [SA149, dihydrochloride]	75
CC[C@H](CC[C@@H](C)[C@H]1CC[C@H]2[C@@H]3CC=C4C[C@@H](OC(=O)N(CCCN)CCCCCCN)CC[C@]4(C)[C@H]3CC[C@]12C)C(C)C [SA84, dihydrochloride]	74
CC(C)CCC[C@@H](C)[C@H]1CC[C@H]2[C@@H]3CC=C4C[C@@H](SSCCC(=O)N(CCCCNCCC(C)N)CCC(C)N)CC[C@]4(C)[C@H]3CC[C@]12C (stereo partly drawn) [SA171, trihydrochloride]	73

Next, consider the following molecule.
Fill blank: measured Diameter (nm) of the molecule CC(C)CCC[C@@H](C)[C@H]1CC[C@H]2[C@@H]3CC=C4C[C@@H](OC(=O)N(CCCCNCC5(CN)CC5)CC5(CN)CC5)CC[C@]4(C)[C@H]3CC[C@]12C.Cl.Cl.Cl [SA128] is ____.
75
